Experiment: PK characteristics in humans (plasma, LC/MS/MS)
Assay type: in vivo, human
Settings: human, plasma, oral, 20 mg, Day 1, 20 mg, n=1; read-out: T1/2 (converted)
METRIC: half-life
For clarity, give the value followed by its unit.

Item: Nc1cc(C(F)(F)F)c(-c2nc(N3CCOCC3)c3nc(-c4cccc(NS(=O)(=O)CCCF)c4F)ccc3n2)cn1 [CMPD A] | half-life: 822 min

###

Experiment: PK characteristics in humans (plasma, LC/MS/MS)
Format: in vivo, human
Settings: human, plasma, oral, 10 mg, Day 1, 10 mg, n=1; read-out: Tmax
METRIC: Tmax (h)
# output: bare number, implied unit h

Item: Nc1cc(C(F)(F)F)c(-c2nc(N3CCOCC3)c3nc(-c4cccc(NS(=O)(=O)CCCF)c4F)ccc3n2)cn1 [CMPD A] | Tmax: 4

###

Assay: PK characteristics in humans (plasma, LC/MS/MS)
Assay type: in vivo, human
Details: human, plasma, oral, 240 mg, Day 15, 240 mg, individual subjects; read-out: Tmax
Protocol: A pharmaceutical formulation of the disclosure comprising the active ingredient N-(3-(2-(6-amino-4-(trifluoromethyl)pyridin-3-yl)-4-morpholinopyrido[3,2-d]pyrimidin-6-yl)-2-fluorophenyl)-3-fluoropropane-1-sulfonamide was evaluated for safety/tolerability and preliminary efficacy in eligible human subjects with advanced solid tumors, and the pharmacokinetic (PK) profile of the active ingredient was investigated for each subject. Eligibility criteria for inclusion in this study included: […]
METRIC: Tmax (h)
# output: bare number, implied unit h

Item: Nc1cc(C(F)(F)F)c(-c2nc(N3CCOCC3)c3nc(-c4cccc(NS(=O)(=O)CCCF)c4F)ccc3n2)cn1 | Tmax: 2

###

Assay: PK characteristics in humans (plasma, LC/MS/MS)
Format: in vivo, human
Settings: human, plasma, oral, 400 mg, Day 15, 400 bid mg, n=1; read-out: Tmax
METRIC: Tmax (h)
# output: bare number, implied unit h

Item: Nc1cc(C(F)(F)F)c(-c2nc(N3CCOCC3)c3nc(-c4cccc(NS(=O)(=O)CCCF)c4F)ccc3n2)cn1 | Tmax: 2

###

Assay: PK characteristics in humans (plasma, LC/MS/MS)
Format: in vivo, human
Conditions: human, plasma, oral, 400 mg, Day 1, 400 bid mg, mean; read-out: AUC0-24
METRIC: AUC(0-t)
For clarity, give the value followed by its unit.

Item: Nc1cc(C(F)(F)F)c(-c2nc(N3CCOCC3)c3nc(-c4cccc(NS(=O)(=O)CCCF)c4F)ccc3n2)cn1 | AUC(0-t): 26300 ng·h/mL

###

Experiment: PK characteristics in humans (plasma, LC/MS/MS)
Type: in vivo, human
Conditions: human, plasma, oral, 400 mg, Day 15, 400 QD mg, individual subjects; read-out: T1/2 (converted)
METRIC: half-life (h)
# output: bare number, implied unit h

Item: Nc1cc(C(F)(F)F)c(-c2nc(N3CCOCC3)c3nc(-c4cccc(NS(=O)(=O)CCCF)c4F)ccc3n2)cn1 [CMPD A] | half-life: 10.1

###

Experiment: PK characteristics in humans (plasma, LC/MS/MS)
Assay type: in vivo, human
Details: human, plasma, oral, 400 mg, Day 1, 400 bid mg, individual subjects; read-out: AUC0-24
METRIC: AUC(0-t) (ng·h/mL)
# output: bare number, implied unit ng·h/mL

Item: Nc1cc(C(F)(F)F)c(-c2nc(N3CCOCC3)c3nc(-c4cccc(NS(=O)(=O)CCCF)c4F)ccc3n2)cn1 | AUC(0-t): 32100
